# Species: Rattus norvegicus
# assayMethodText: Open TG-GATES - Regimen: Daily Repeat
# Assay type: toxicity, organism-based, Sprague-Dawley
# Design: regimen Daily Repeat, gender Male, age 6 weeks
# recordedConditions: in vivo, po, 1000 mg/kg, […], tissue Blood, route gavage, dose level High, time 14 day
Property: Bas; scope: individual compounds
measuredEndpoint: Bas (%)

>>> endpointvalue("CCN1CCCC1CNC(=O)c1cc(S(N)(=O)=O)ccc1OC (centres undefined) [SULPIRIDE]")
0.2
>>> endpointvalue("CC(C)(S)[C@@H](N)C(=O)O [PENICILLAMINE]")
0
>>> endpointvalue("O=C(N[C@H](CO)[C@H](O)c1ccc([N+](=O)[O-])cc1)C(Cl)Cl [CHLORAMPHENICOL]")
0
>>> endpointvalue("O=C(O)c1cccnc1 [NIACIN]")
0

---

Property: GLC; scope: individual compounds
# Organism: Rattus norvegicus
# assayMethodText: Open TG-GATES - Regimen: Daily Repeat
# Type: toxicity, organism-based, Sprague-Dawley
# Set-up: regimen Daily Repeat, gender Male, age 6 weeks
# recordedConditions: in vivo, po, 0 mg/kg, […], tissue Plasma, route gavage, dose level Control, time 28 day
measuredEndpoint: GLC (mg/dL)

>>> endpointvalue("CC(=O)Oc1cc(C(C)C)c(OCCN(C)C)cc1C")
201.5
>>> endpointvalue("C[C@]12CCC(=O)C=C1CC[C@@H]1[C@@H]2CC[C@@]2(C)[C@H]1CC[C@]2(C)O")
182.6
>>> endpointvalue("CCN1CCCC1CNC(=O)c1cc(S(N)(=O)=O)ccc1OC (stereo not given) [SULPIRIDE]")
169.2
>>> endpointvalue("C[C@](N)(Cc1ccc(O)c(O)c1)C(=O)O")
185.4
>>> endpointvalue("CC(=N)S [THIOACETAMIDE]")
179.4
>>> endpointvalue("CN1C(=O)OC(C)(C)C1=O")
183.8
>>> endpointvalue("O=C(O)c1cccnc1")
214.4
>>> endpointvalue("O=C(N[C@H](CO)[C@H](O)c1ccc([N+](=O)[O-])cc1)C(Cl)Cl")
193.4
>>> endpointvalue("CCc1oc2ccccc2c1C(=O)c1cc(I)c(O)c(I)c1")
200
>>> endpointvalue("Nc1nc(N)c2nc(-c3ccccc3)c(N)nc2n1")
194.8

---

Property: Neu; scope: individual molecules
# Species: Rattus norvegicus
# assayMethodText: Open TG-GATES - Regimen: Daily Repeat
# Type: toxicity, organism-based, Sprague-Dawley
# Design: regimen Daily Repeat, gender Male, age 6 weeks
# recordedConditions: in vivo, po, 1000 mg/kg, […], tissue Blood, route gavage, dose level High, time 14 day
measuredEndpoint: Neu (%)

>>> endpointvalue("CC(C)(S)[C@@H](N)C(=O)O [PENICILLAMINE]")
13.2
>>> endpointvalue("O=C(O)c1cccnc1 [NIACIN]")
19.8
>>> endpointvalue("O=C(N[C@H](CO)[C@H](O)c1ccc([N+](=O)[O-])cc1)C(Cl)Cl [CHLORAMPHENICOL]")
8.4
>>> endpointvalue("CCN1CCCC1CNC(=O)c1cc(S(N)(=O)=O)ccc1OC (centres undefined) [SULPIRIDE]")
23

---

# Organism: Rattus norvegicus
# assayMethodText: Open TG-GATES - Regimen: Daily Repeat
# Format: toxicity, organism-based, Sprague-Dawley
# Set-up: regimen Daily Repeat, gender Male, age 6 weeks
# recordedConditions: in vivo, po, 0 mg/kg, […], tissue Plasma, route gavage, dose level Control, time 28 day
Property: DBIL; scope: individual compounds
measuredEndpoint: DBIL (mg/dL)

>>> endpointvalue("C[C@]12CCC(=O)C=C1CC[C@@H]1[C@@H]2CC[C@@]2(C)[C@H]1CC[C@]2(C)O")
0.016
>>> endpointvalue("O=C(O)c1cccnc1")
0
>>> endpointvalue("CCN1CCCC1CNC(=O)c1cc(S(N)(=O)=O)ccc1OC (stereo not given) [SULPIRIDE]")
0.012
>>> endpointvalue("C#C[C@]1(O)CC[C@H]2[C@@H]3CCc4cc(O)ccc4[C@H]3CC[C@@]21C")
0.012
>>> endpointvalue("CC(=N)S [THIOACETAMIDE]")
0
